Origin of the recorded values: paper PMC4608764

Biological target: T1, ChlR1-WT (Homo sapiens, UniProt Q96FC9-2 1-906)
T1 sequence: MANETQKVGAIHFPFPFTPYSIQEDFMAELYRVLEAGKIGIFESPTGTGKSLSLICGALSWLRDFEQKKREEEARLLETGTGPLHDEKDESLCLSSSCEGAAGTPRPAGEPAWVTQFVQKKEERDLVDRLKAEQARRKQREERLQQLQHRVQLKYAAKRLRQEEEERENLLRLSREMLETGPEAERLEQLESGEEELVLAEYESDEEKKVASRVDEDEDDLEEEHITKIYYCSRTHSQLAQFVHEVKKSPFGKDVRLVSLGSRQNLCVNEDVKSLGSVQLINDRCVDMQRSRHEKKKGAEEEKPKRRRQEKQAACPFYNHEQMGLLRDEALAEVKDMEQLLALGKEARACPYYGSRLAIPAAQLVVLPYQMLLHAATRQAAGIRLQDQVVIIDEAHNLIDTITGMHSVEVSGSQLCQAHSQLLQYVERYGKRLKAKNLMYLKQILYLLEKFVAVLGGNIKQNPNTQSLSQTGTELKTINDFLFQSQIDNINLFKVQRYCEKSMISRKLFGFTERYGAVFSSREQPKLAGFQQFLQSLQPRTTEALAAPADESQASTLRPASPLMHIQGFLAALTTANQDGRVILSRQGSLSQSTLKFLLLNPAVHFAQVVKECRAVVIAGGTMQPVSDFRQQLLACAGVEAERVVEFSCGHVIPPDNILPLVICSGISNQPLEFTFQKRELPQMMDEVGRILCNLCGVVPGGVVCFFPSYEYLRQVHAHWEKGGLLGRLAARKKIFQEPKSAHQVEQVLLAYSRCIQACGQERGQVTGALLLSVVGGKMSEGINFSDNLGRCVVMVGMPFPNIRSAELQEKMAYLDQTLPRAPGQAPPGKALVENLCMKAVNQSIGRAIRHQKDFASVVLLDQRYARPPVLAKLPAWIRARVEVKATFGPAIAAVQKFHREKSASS
Assay: filter binding; 37 C, 1 mM Mg(OAc)2; EMSA: 40 mM Tris-HCl pH 7.4, 25 mM KCl, 5 mM MgCl2, 2 mM DTT, 2% glycerol, 100 ng/uL BSA, no ATP, 0.5 nM DNA, room temp 30 min; anisotropy: same buffer, 21 C; filter binding: 25 mM Tris-HCl pH 7.5, 25 mM KOAc, 1 mM Mg(OAc)2, 1 mM DTT, 100 ug/mL BSA, 37 C 30 min
Conditions: protein: recombinant; tags: FLAG; label: 32P (5' end); fork, 19 bp duplex; 5' ssDNA tail 26 nt (DC26) and 3' ssDNA tail 25 nt (TSTEM25)
metric: pKd
Lab note — pKd values are minus log10 of concentrations in M.

Item: Forked duplex (DC26/TSTEM25) (dsDNA) DNA 1: TTTTTTTTTTTTTTTTTTTTTTCCCAGTAAAACGACGGCCAGTGC DNA 2: GCACTGGCCGTCGTTTTACGGTCGTGACTGGGAAAACCCTGGCG | pKd: 6.98
